Hello, the source for this data is patent US8541455B2, in case you need it.

Structures can show the parent of a compound that is named as a salt.
Listed here: items and their measured melting point.
# unit: °C | format: bare number

{"columns": ["MOLECULE", "UNIT_ABBREV", "VALUE_REPORTED"],
 "data": [
  ["COc1ccccc1Cc1c(C)[nH]n(-c2ccccn2)c1=O [Compound 192]", "°C", 254]
]}

// lookup melting point for Cc1[nH]n(-c2ccccn2)c(=O)c1Cc1cccc(C(F)(F)F)c1 [Compound 185]
78

// lookup melting point for CCN(c1ccccc1)S(=O)(=O)c1ccc(-n2[nH]c(C)c(Cc3cccc(OC)n3)c2=O)nc1 [Compound 78]
174

// lookup melting point for COC(=O)CC(c1ccccc1)c1c[nH]n(-c2ccc(S(=O)(=O)N(C)C3CCCC3)cn2)c1=O (stereo not shown) [Compound 114]
80

// lookup melting point for CCN(c1ccccc1)S(=O)(=O)c1ccc(-n2[nH]c(C)c(Cc3cc(OC)cc(OC)c3)c2=O)nc1 [Compound 47]
162

// lookup melting point for O=c1c(Cc2ccccc2)c[nH]n1-c1ccc(S(=O)(=O)N(CC(O)CO)c2ccccc2)cn1 (stereo not shown) [Compound 143]
174

// lookup melting point for CCN(c1ccccc1)S(=O)(=O)c1ccc(-n2[nH]c(C)c(Cc3ccccc3)c2=O)nc1 [Compound 42]
212

// lookup melting point for CN(C(C)(C)C)S(=O)(=O)c1ccc(-n2[nH]cc(Cc3ccccc3)c2=O)nc1 [Compound 100]
186

// lookup melting point for CCN(C1CCCC1)S(=O)(=O)c1ccc(-n2[nH]cc(Cc3ccncc3)c2=O)nc1 (as salt: HCl) [Compound 119]
115
